- tested_system: full-length beta-Catenin (Uniprot ID P35222) (Homo sapiens (Human)) (UniProt P35222)
- Sequence (P35222 whole entry): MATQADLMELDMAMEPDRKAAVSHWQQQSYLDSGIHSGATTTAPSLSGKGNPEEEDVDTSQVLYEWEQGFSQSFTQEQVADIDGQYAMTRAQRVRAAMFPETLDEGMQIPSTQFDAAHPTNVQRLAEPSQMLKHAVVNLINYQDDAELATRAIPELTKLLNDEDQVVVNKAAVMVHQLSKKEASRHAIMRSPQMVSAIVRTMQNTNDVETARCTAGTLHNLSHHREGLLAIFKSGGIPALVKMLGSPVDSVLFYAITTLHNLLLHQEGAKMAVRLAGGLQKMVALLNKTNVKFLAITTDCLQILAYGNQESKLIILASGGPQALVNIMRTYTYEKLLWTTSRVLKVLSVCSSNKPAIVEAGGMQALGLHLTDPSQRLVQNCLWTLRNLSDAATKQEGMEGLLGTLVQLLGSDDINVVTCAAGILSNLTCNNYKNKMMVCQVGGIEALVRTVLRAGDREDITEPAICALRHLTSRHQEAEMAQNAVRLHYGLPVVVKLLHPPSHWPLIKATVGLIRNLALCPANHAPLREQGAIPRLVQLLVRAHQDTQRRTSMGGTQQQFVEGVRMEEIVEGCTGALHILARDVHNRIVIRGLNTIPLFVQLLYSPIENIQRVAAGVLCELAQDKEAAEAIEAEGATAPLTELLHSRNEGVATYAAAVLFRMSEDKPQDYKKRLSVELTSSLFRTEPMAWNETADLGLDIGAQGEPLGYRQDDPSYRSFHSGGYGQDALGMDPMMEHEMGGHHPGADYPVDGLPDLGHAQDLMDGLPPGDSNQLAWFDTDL
- experimental_protocol: fluorescence polarization competition; full-length beta-catenin + 5FAM-TCF4(10-53) probe
Starred links: 1 amine or outer side, 2 acyl side, 3 side chain; linkers in the order of their positions; H or OH if unused. Positions of bridges follow the written chain, without caps; N, C: chain ends. Non-standard residues stand in square brackets, D forms with d. Primed or numbered codes have the meaning given here. *: point of attachment. PyrS2″ = (S)-3-amino-1-((pent-4-en-1-yloxy)carbonyl)pyrrolidine-3-carboxylic acid (stapling residue), C=CCCCOC(=O)N1CC[C@@](N[*:1])(C(=O)[*:2])C1; B5(5) = 2,2-bis(4-pentenyl)glycine, 2-amino-2-(pent-4-en-1-yl)hept-6-enoic acid (stitching residue), C=CCCCC(CCCC=C)(N[*:1])C(=O)[*:2]; PyrS2 = (S)-3-amino-1-((pent-4-en-1-yloxy)carbonyl)pyrrolidine-3-carboxylic acid, C=CCCCOC(=O)N1CC[C@@](N[*:1])(C(=O)[*:2])C1; B5(3) = 2,2-bis(4-pentenyl)glycine (stitching residue), C=CCCCC(CCCC=C)(N[*:1])C(=O)[*:2]; Phe(3-CF3) = N[C@@H](Cc1cccc(C(F)(F)F)c1)C(=O)O; Phe(2-Cl) = N[C@@H](Cc1ccccc1Cl)C(=O)O; 1Nal = N[C@@H](Cc1cccc2ccccc12)C(=O)O; Bta = N[C@@H](Cc1csc2ccccc12)C(=O)O; Lys(iPr) = CC(C)NCCCC[C@H](N)C(=O)O; αAllylPro = C=CC[C@@]1(C(=O)O)CCCN1; tBuAla = CC(C)(C)C[C@H](N)C(=O)O; 3Thi = N[C@@H](Cc1ccsc1)C(=O)O; Thr(ol) = C[C@@H](O)[C@H](N)CO; iPr = CC(C)*
Please use rule met for EC50 under 200 nM and rule not met for everything else, ties included.

1) Ac-[αAllylPro]D[tBuAla][B5(3)]DTALFT[PyrS2″]F[Bta]S-NH2 (staple 1-4; staple 4-11 (inferred); not fully specified; printed as Ac-PL3-Asp-Npg-B5-Asp-Thr-Ala-Leu-Phe-Thr-PyrS2-Phe-BztA-Ser-NH2) [I-1265] | rule met
2) Ac-[αAllylPro]D[tBuAla][B5(3)]DTAAFT[PyrS2″][Phe(3-CF3)][Bta]S-NH2 (staple 1-4; staple 4-11 (inferred); not fully specified; printed as Ac-PL3-Asp-Npg-B5-Asp-Thr-Ala-Ala-Phe-Thr-PyrS2-3F3MeF-BztA-Ser-NH2) [I-1271] | rule not met

QUERY: Does Ac-[αAllylPro]D[tBuAla][B5(5)]DD[Lys(iPr)]AFL[PyrS2″][Phe(2-Cl)][Bta]T-NH2 (staple 1-4; staple 4-11 (inferred); not fully specified; printed as Ac-PL3-Asp-Npg-B5-Asp-Asp-iPrLys-Ala-Phe-Leu-PyrS2-2C1F-BztA-Thr-NH2) [I-1276] have EC50 strictly under 200 nM?
RESULT: rule met

QUERY: Does Ac-[αAllylPro]N[tBuAla][B5(5)]DDAAFL[PyrS2][3Thi][Bta][Thr(ol)] (staple 1-4, 4-11) [I-1304] have EC50 strictly under 200 nM?
RESULT: rule met

QUERY: Does Ac-[αAllylPro]D[tBuAla][B5(5)]DEAAFK(iPr)[PyrS2][Phe(2-Cl)][Bta]T-NH2 (staple 1-4, 4-11) [I-1282] have EC50 strictly under 200 nM?
RESULT: rule met

QUERY: Does Ac-[αAllylPro]D[tBuAla][B5(3)]DTAAFT[PyrS2″][1Nal][Bta]S-NH2 (staple 1-4; staple 4-11 (inferred); not fully specified; printed as Ac-PL3-Asp-Npg-B5-Asp-Thr-Ala-Ala-Phe-Thr-PyrS2-1NapA-BztA-Ser-NH2) [I-1269] have EC50 strictly under 200 nM?
RESULT: rule met

QUERY: Does Ac-[αAllylPro]D[tBuAla][B5(3)]DTAAFT[PyrS2″]F[1Nal]S-NH2 (staple 1-4; staple 4-11 (inferred); not fully specified; printed as Ac-PL3-Asp-Npg-B5-Asp-Thr-Ala-Ala-Phe-Thr-PyrS2-Phe-1NapA-Ser-NH2) [I-1272] have EC50 strictly under 200 nM?
RESULT: rule not met
